molecular target: Fe(3+)-Zn(2+) purple acid phosphatase (Phaseolus vulgaris, UniProt P80366)
Sequence (P80366 whole entry): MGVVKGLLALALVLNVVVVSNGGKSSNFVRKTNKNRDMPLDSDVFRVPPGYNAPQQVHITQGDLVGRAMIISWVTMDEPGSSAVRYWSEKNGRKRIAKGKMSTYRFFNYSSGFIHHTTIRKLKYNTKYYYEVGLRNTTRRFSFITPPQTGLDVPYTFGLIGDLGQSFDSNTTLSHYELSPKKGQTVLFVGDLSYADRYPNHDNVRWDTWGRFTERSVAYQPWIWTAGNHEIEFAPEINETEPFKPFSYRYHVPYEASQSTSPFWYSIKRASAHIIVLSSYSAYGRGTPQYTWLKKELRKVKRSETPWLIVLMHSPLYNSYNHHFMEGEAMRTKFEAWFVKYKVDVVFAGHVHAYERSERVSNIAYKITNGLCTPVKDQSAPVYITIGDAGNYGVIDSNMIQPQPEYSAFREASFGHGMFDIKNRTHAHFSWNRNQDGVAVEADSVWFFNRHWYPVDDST
MEASURED_PROPERTY: pKi
Notebook: values listed as pKi are -log10 of the concentration (mol/L).

The recorded pKi with Fe(3+)-Zn(2+) purple acid phosphatase (Phaseolus vulgaris, UniProt P80366) for CCCCCCCCOC(c1cccc2ccccc12)P(=O)(O)O (racemic) was 4.30
